Every entry's value here was drawn from patent US20230263822A1.

Each record here notes measured reticulocytes.
- TEST_DETAILS: Hematology assays in cynomolgus monkeys (Example 45)
- Format: in vivo
- RUN_PARAMETERS: day 29

SUBSTANCE	reticulocytes
ISIS 416858: MOE gapmer, nucleobases 1275 to 1318 of SEQ ID NO: 1 (Table 8) (antisense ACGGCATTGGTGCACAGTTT; MOE gapmer, wing and gap sizes not given here)	1.5%

API: the following record is the query input.
// reticulocytes value for ISIS 416864: MOE gapmer, nucleobases 1275 to 1318 of SEQ ID NO: 1 (Table 8) (antisense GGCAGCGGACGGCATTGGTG; MOE gapmer, wing and gap sizes not given here) : 1.3%
